- Tested on: Enterobacter cloacae
- test_method_notes: Expected efficacy of antibiotic agents
- Format: cell-based
- condition_details: Gram: neg
observed_property: efficacy against Enterobacter cloacae

These solved cases illustrate the format of a correct answer.
>  <mol_smiles>
CN[C@H](CC(C)C)C(=O)N[C@H]1C(=O)N[C@@H](CC(N)=O)C(=O)N[C@H]2C(=O)N[C@H]3C(=O)N[C@H](C(=O)N[C@H](C(=O)O)c4cc(O)cc(O)c4-c4cc3ccc4O)[C@H](O)c3ccc(c(Cl)c3)Oc3cc2cc(c3O[C@@H]2O[C@H](CO)[C@@H](O)[C@H](O)[C@H]2O[C@H]2C[C@](C)(N)[C@H](O)[C@H](C)O2)Oc2ccc(cc2Cl)[C@H]1O

>  <data_value>
no

$$$$
>  <mol_smiles>
CC[C@H]1OC(=O)[C@H](C)[C@@H](O[C@H]2C[C@@](C)(OC)[C@@H](O)[C@H](C)O2)[C@H](C)[C@@H](O[C@@H]2O[C@H](C)C[C@H](N(C)C)[C@H]2O)[C@](C)(O)C[C@@H](C)CN(C)[C@H](C)[C@@H](O)[C@]1(C)O

>  <data_value>
no

$$$$
>  <mol_smiles>
CO/N=C(\C(=O)N[C@@H]1C(=O)N2C(C(=O)O)=C(CSc3nc(=O)c(=O)[nH]n3C)CS[C@H]12)c1csc(N)n1

>  <data_value>
yes

$$$$
>  <mol_smiles>
NC[C@H]1O[C@H](O[C@H]2[C@H](O)[C@@H](O[C@H]3O[C@H](CO)[C@@H](O)[C@H](N)[C@H]3O)[C@H](N)C[C@@H]2N)[C@H](N)C[C@@H]1O

>  <data_value>
yes

$$$$

INPUT: Recorded efficacy against Enterobacter cloacae for C/C(=C\C(=O)OCCCCCCCCC(=O)O)C[C@@H]1OC[C@H](C[C@@H]2O[C@H]2[C@@H](C)[C@H](C)O)[C@@H](O)[C@H]1O , please?
OUTPUT: no

---

- System: Acinetobacter calcoaceticus
- test_method_notes: Expected efficacy of antibiotic agents
- Type: cell-based
- condition_details: Gram: neg
observed_property: efficacy against Acinetobacter calcoaceticus

>  <mol_smiles>
CO/N=C(\C(=O)N[C@@H]1C(=O)N2C(C(=O)O)=C(CSc3nc(=O)c(=O)[nH]n3C)CS[C@H]12)c1csc(N)n1

>  <data_value>
no

$$$$
>  <mol_smiles>
C/C(=C\C(=O)OCCCCCCCCC(=O)O)C[C@@H]1OC[C@H](C[C@@H]2O[C@H]2[C@@H](C)[C@H](C)O)[C@@H](O)[C@H]1O

>  <data_value>
no

$$$$
>  <mol_smiles>
NC[C@H]1O[C@H](O[C@H]2[C@H](O)[C@@H](O[C@H]3O[C@H](CO)[C@@H](O)[C@H](N)[C@H]3O)[C@H](N)C[C@@H]2N)[C@H](N)C[C@@H]1O

>  <data_value>
no

$$$$

---

- Tested on: Chlamydia trachomatis
- test_method_notes: Expected efficacy of antibiotic agents
- Type: cell-based
- condition_details: Gram: n/a
observed_property: efficacy against Chlamydia trachomatis

>  <compound>
CC[C@H]1OC(=O)[C@H](C)[C@@H](O[C@H]2C[C@@](C)(OC)[C@@H](O)[C@H](C)O2)[C@H](C)[C@@H](O[C@@H]2O[C@H](C)C[C@H](N(C)C)[C@H]2O)[C@](C)(O)C[C@@H](C)CN(C)[C@H](C)[C@@H](O)[C@]1(C)O [Azithromycin]

>  <system_under_test>
Chlamydia trachomatis

>  <data_value>
yes

$$$$
>  <compound>
NC[C@H]1O[C@H](O[C@H]2[C@H](O)[C@@H](O[C@H]3O[C@H](CO)[C@@H](O)[C@H](N)[C@H]3O)[C@H](N)C[C@@H]2N)[C@H](N)C[C@@H]1O [Tobramycin]

>  <system_under_test>
Chlamydia trachomatis

>  <data_value>
no

$$$$
>  <compound>
CN[C@H](CC(C)C)C(=O)N[C@H]1C(=O)N[C@@H](CC(N)=O)C(=O)N[C@H]2C(=O)N[C@H]3C(=O)N[C@H](C(=O)N[C@H](C(=O)O)c4cc(O)cc(O)c4-c4cc3ccc4O)[C@H](O)c3ccc(c(Cl)c3)Oc3cc2cc(c3O[C@@H]2O[C@H](CO)[C@@H](O)[C@H](O)[C@H]2O[C@H]2C[C@](C)(N)[C@H](O)[C@H](C)O2)Oc2ccc(cc2Cl)[C@H]1O [Vancomycin]

>  <system_under_test>
Chlamydia trachomatis

>  <data_value>
no

$$$$
>  <compound>
CO/N=C(\C(=O)N[C@@H]1C(=O)N2C(C(=O)O)=C(CSc3nc(=O)c(=O)[nH]n3C)CS[C@H]12)c1csc(N)n1 [Ceftriaxone]

>  <system_under_test>
Chlamydia trachomatis

>  <data_value>
no

$$$$
